- target-entity: Prp43 R159A (UniProt P53131 1-767, R159A)
- protocol-summary: filter binding
quantity-kind: Kd (nM)
Your answer should be a plain number; it is taken to be in nM.

Task: Look up Kd for this binder: GACGGGCUGUUGGUGAUGGAC (ssRNA) [21-mer ssRNA]
Result: 8

From: paper PMC5388414
